meta.source: patent US9856279B2

Below: a set of entries, each annotated with reported pIC50.
target: IDH1 R132H (Homo sapiens, UniProt O75874, R132H); assay: Assay for IDH1 R132H inhibitors (NADPH/aKG, resazurin detection); format: biochemical; details: enzyme assay of Example 12; read-out: IDH1R132H IC50
Sequence (O75874 whole entry R132H): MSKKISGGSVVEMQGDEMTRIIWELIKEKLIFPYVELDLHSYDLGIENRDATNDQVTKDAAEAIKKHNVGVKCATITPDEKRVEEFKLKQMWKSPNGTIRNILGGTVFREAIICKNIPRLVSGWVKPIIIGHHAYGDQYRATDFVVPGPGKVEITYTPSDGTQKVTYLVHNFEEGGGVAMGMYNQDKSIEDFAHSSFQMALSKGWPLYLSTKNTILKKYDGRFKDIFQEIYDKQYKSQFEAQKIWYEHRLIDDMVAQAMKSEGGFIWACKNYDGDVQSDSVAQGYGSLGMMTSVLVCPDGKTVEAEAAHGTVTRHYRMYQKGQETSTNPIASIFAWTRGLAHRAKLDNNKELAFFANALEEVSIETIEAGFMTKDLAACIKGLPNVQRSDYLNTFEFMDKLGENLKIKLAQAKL
pIC50: −log10 of the molar value.

// known answers, use as guide
# molecule, systemName, pIC50
records = [
    ("CN(C)c1nccc(-c2cc(C#N)c(N3CCN(C(=O)C4CC4)[C@H](C4CC4)C3)nc2C2CC2)n1 [Compound 506]", "IDH1 R132H (Homo sapiens, UniProt O75874, R132H)", "6.00 to 6.30"),
    ("C=Cc1cc(-c2c(C3CC3)nc(N3CCN(C(=O)CCC4CCCC4)[C@H](C4CC4)C3)c(C#N)c2C)ccn1 [Compound 797]", "IDH1 R132H (Homo sapiens, UniProt O75874, R132H)", "> 6.30"),
    ("N#Cc1cc(-c2ccc3ncoc3c2)c(C2CC2)nc1N1CCN(C(=O)C2CC2)[C@H](C2CC2)C1 [Compound 466]", "IDH1 R132H (Homo sapiens, UniProt O75874, R132H)", "> 6.30"),
    ("C=CC(=O)N1CCC=C(c2cc(C#N)c(N3CCN(C(=O)CCO)[C@H](C4CC4)C3)nc2C2CC2)C1 [Compound 727]", "IDH1 R132H (Homo sapiens, UniProt O75874, R132H)", "> 6.30"),
    ("C=Cc1cc(N(C)c2cc(C#N)c(N3CCN(C(=O)CCOC)[C@H](C)C3)nc2C2CC2)ccn1 [Compound 690]", "IDH1 R132H (Homo sapiens, UniProt O75874, R132H)", "> 6.30"),
]

The value of pIC50 measured for the molecule C=Cc1cc(-c2c(C3CC3)nc(N3CCN(C(=O)OC(C)(C)C)[C@H](C4CC4)C3)c(C#N)c2C)cnn1 [Compound 772] turned out to be 6.00 to 6.30

The value of pIC50 measured for the molecule COCCC(=O)N1CCN(c2nc(C3CC3)c(-c3ccc4nccnc4c3)cc2C#N)C[C@H]1C [Compound 445] turned out to be > 6.30
